Test system: Streptococcus pneumoniae
assay.explanation: Antibacterial activity against Streptococcus pneumoniae IID553 by micro-broth dilution method
Format: functional
condition.label: Streptococcus pneumoniae, IID553; read-out: MIC
measured.parameter: MIC (µg/mL)
Number in µg/mL, nothing else.

Problem: What measured MIC goes with COc1ccc2ncc(F)c(CC(O)(C(F)(F)F)C34CCC(NCc5ccc6c(n5)NC(=O)CO6)(CC3)CO4)c2n1 (racemic) ?
Result: 4

Problem: Given CO/N=C(/Cc1c(F)cnc2ccc(OC)nc12)C12CCC(NCc3ccc4c(n3)NC(=O)CO4)(CC1)CO2 , state its recorded MIC.
Result: 16

Problem: Which MIC value is on record for COc1ccc2ncc(F)c(CC(OCCO)C34CCC(NCc5ccc6c(n5)NC(=O)CO6)(CC3)CO4)c2n1 (racemic) ?
Result: 8

Problem: Field request: MIC | item: COc1ccc2ncc(F)c(CC(F)C34CCC(NCc5ccc6c(n5)NC(=O)CO6)(CC3)CO4)c2n1 (racemic)
Result: 1

Problem: Look at this compound and give its reported MIC. COc1ccc2ncc(F)c(C(CO)CC34CCC(NCc5ccc6c(n5)NC(=O)CO6)(CC3)CO4)c2n1 (racemic)
Result: 2

Problem: Quick check: MIC of COc1ccc2ncc(F)c(CC(NOC(C)=O)C34CCC(NCc5ccc6c(n5)NC(=O)CO6)(CC3)CO4)c2n1 (racemic) ?
Result: 16

Problem: Which measured MIC value corresponds to CCOC(=O)C(CC12CCC(NCc3ccc4c(n3)NC(=O)CO4)(CC1)CO2)c1c(F)cnc2ccc(OC)nc12 (racemic) ?
Result: 8
